# system: PxGSTσ2 (Plutella xylostella, UniProt Q6F443)
# Sequence (Q6F443 entry or part of it): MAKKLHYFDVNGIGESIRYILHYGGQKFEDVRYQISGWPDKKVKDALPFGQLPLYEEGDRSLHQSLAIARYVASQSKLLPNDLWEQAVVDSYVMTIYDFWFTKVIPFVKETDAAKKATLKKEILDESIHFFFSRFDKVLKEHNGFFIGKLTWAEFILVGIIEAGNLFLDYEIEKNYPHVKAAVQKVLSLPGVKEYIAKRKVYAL
# method: Inhibition of PxGSTσ2 recombinant protein
# Assay type: biochemical
# conditionLabel: read-out: 100 μM Inhibition rate %
resultType: inhibition at 100 µM (%)

Consider the reported inhibition at 100 µM for these molecules:
molecule	measurementUnit	inhibition at 100 µM
N#Cc1ccc(OCC(=O)NNC(=O)c2cc(-c3ccccc3)nn2-c2ccccc2)cc1	%	32.5
COc1cc(C(=O)NNC(=O)c2cc(-c3ccccc3)nn2-c2ccccc2)cc(OC)c1OC	%	21.6
O=C(COc1ccccc1)NNC(=O)c1cc(-c2ccccc2)nn1-c1ccccc1	%	24.5
CC1(CCc2ccccc2)NC(=O)N(NC(=O)c2cc(-c3ccccc3)nn2-c2ccccc2)C1=O (centres unmarked)	%	25.6

P = COc1ccccc1OCC(=O)NNC(=O)c1cc(-c2ccccc2)nn1-c1ccccc1
Q = O=C(CC12C[C@H]3C[C@H](C1)C[C@@H](C2)C3)NNC(=O)c1cc(-c2ccccc2)nn1-c1ccccc1
R = CCCCCCSC[C@H](NC(=O)CC[C@H](N)C(=O)O)C(=O)NCC(=O)O [GTX, S-Hexylglutathione, reference compound]
S = O=C(NNC(=O)c1cc(-c2ccccc2)nn1-c1ccccc1)c1ccc(=O)[nH]n1
*Q* Sort these molecules on inhibition at 100 µM so the largest reading comes first. A ranking is expressed here by listing the labels in the requested order.
*A* R, S, Q, P
(R: 84.8%, S: 42.4%, Q: 24.7%, P: 13.5%)

----------
# system: UniProtKB Q6F436
# Sequence (Q6F436 entry or part of it): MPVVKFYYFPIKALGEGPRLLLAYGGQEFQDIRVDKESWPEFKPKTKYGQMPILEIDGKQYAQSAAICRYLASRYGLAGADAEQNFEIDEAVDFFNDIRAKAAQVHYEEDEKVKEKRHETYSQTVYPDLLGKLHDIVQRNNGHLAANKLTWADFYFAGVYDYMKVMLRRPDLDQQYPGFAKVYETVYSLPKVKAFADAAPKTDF
# method: Inhibition of PxGSTσ1 recombinant protein
# Type: biochemical
# conditionLabel: read-out: 100 μM Inhibition rate %
resultType: inhibition at 100 µM (%)

Solved entries:
molecule	inhibition at 100 µM [%]
CC1(c2ccccc2)NC(=O)N(NC(=O)c2cc(-c3ccccc3)nn2-c2ccccc2)C1=O (centres unmarked)	48.3
O=C(NNC(=O)c1cc(-c2ccccc2)nn1-c1ccccc1)c1cc[nH]c(=O)c1	25.5
COc1cc(C(=O)NNC(=O)c2cc(-c3ccccc3)nn2-c2ccccc2)cc(OC)c1OC	43.6
CCOC(=O)NNC(=O)c1cc(-c2ccccc2)nn1-c1ccccc1	14.9
COc1cccc(C2(C)NC(=O)N(NC(=O)c3cc(-c4ccccc4)nn3-c3ccccc3)C2=O)c1 (centres unmarked)	48.9

P = O=C(NNC(=O)[C@@H]1COc2ccccc2O1)c1cc(-c2ccccc2)nn1-c1ccccc1
Q = CCCCCCSC[C@H](NC(=O)CC[C@H](N)C(=O)O)C(=O)NCC(=O)O [GTX, S-Hexylglutathione, reference compound]
*Q* Hello, I am sorting some records. Could you say if P or Q has the smaller inhibition at 100 µM value? To answer, give the label that identifies your chosen option.
*A* P
(P: 37.8%, Q: 67.3%)

----------
# System: Spodoptera frugiperda GSTs
# method: Inhibition of total GSTs enzyme of Spodoptera frugiperda (CDNB method)
# Type: biochemical
# conditionLabel: 100 μM
resultType: 100 μM Inhibition rate % (%)

Before answering, review these 7 worked examples.
compound	100 μM Inhibition rate % (%)
CC1(c2ccccc2)NC(=O)N(NC(=O)c2cc(-c3ccccc3)nn2-c2ccccc2)C1=O (stereo not drawn)	12.52
CN(C)S(=O)(=O)c1cccc(C(=O)NNC(=O)c2cc(-c3ccccc3)nn2-c2ccccc2)c1	5.56
CC1CCC2(CC1)NC(=O)N(NC(=O)c1cc(-c3ccccc3)nn1-c1ccccc1)C2=O (stereo not drawn)	−1.72
O=C(NNC(=O)c1cc(-c2ccccc2)nn1-c1ccccc1)c1ccccc1	20.95
O=C(NN1C(=O)NC2(CCCCC2)C1=O)c1cc(-c2ccccc2)nn1-c1ccccc1	11.37
COc1cc(C(=O)NNC(=O)c2cc(-c3ccccc3)nn2-c2ccccc2)cc(OC)c1OC	−7.57
COc1ccccc1CC(=O)NNC(=O)c1cc(-c2ccccc2)nn1-c1ccccc1	20.93

I = N#Cc1ccc(OCC(=O)NNC(=O)c2cc(-c3ccccc3)nn2-c2ccccc2)cc1
II = O=C(CNc1ccccc1)NNC(=O)c1cc(-c2ccccc2)nn1-c1ccccc1
*Q* Rank I against II by their 100 μM Inhibition rate % values and give the higher one. Return value: the label identifying the chosen record.
*A* II
(II: 35.46%, I: 19.64%)
